The measured values listed here are drawn from ChEMBL document CHEMBL1145006.

We begin with a simple list: items and their reported Ki.
# ASSAY TARGET: Somatostatin receptor type 1 (Homo sapiens, UniProt P30872)
# Sequence (P30872 whole entry): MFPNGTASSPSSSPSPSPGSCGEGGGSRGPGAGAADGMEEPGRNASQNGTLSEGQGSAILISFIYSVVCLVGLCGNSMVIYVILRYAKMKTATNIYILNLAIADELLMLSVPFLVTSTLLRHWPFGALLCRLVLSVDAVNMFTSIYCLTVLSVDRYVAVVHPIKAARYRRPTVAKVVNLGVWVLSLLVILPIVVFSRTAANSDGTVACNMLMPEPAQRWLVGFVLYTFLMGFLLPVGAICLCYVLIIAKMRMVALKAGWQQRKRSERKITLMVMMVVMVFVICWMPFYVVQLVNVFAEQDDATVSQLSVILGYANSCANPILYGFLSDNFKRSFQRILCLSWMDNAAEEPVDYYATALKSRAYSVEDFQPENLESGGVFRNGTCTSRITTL
# PROTOCOL SUMMARY: Binding affinity towards human Somatostatin receptor type 1 (sst1) using Tyr11-[125I]-SRIF as radioligand was determined in CHO cells
Positions of bridges follow the written chain, without caps; N, C: chain ends. Non-standard residues stand in square brackets, D forms with d. Residues, ends and D or L forms follow the SMILES beside them. Hyp = O=C(O)[C@@H]1C[C@@H](O)CN1

The recorded Ki for entry C[C@H](N)C(=O)NCC(=O)N[C@H]1CSSC[C@@H](C(N)=O)NC(=O)[C@H](CO)NC(=O)[C@H]([C@@H](C)O)NC(=O)[C@H](Cc2ccccc2)NC(=O)[C@H]([C@@H](C)O)NC(=O)[C@H](CCCCN)NC(=O)[C@H](C)NC(=O)[C@H](Cc2ccccc2)NC(=O)[C@H](Cc2ccccc2)NC(=O)[C@H](CC(N)=O)NC(=O)[C@H](CCCCN)NC1=O (H-AGCKNFFAKTFTSC-NH2; disulfide 3-14) equals 1000 nM

Ki for C[C@@H](O)[C@@H]1NC(=O)[C@H](CCCCN)NC(=O)[C@@H](Cc2c[nH]c3ccccc23)NC(=O)[C@H](Cc2ccccc2)NC(=O)[C@@H]2C[C@@H](O)CN2C(=O)[C@H](Cc2ccccc2)NC1=O (cyclo(F[Hyp]F[dW]KT)) is > 1000 nM

Reported Ki ( C[C@H](N)C(=O)NCC(=O)N[C@H]1CSSC[C@@H](C(N)=O)NC(=O)[C@H](CO)NC(=O)[C@H]([C@@H](C)O)NC(=O)[C@H](C)NC(=O)[C@H]([C@@H](C)O)NC(=O)[C@H](CCCCN)NC(=O)[C@H](Cc2c[nH]c3ccccc23)NC(=O)[C@H](Cc2ccccc2)NC(=O)[C@H](Cc2ccccc2)NC(=O)[C@H](CC(N)=O)NC(=O)[C@H](CCCCN)NC1=O (H-AGCKNFFWKTATSC-NH2; disulfide 3-14) ) = 0.631 nM

Lab note: `NCCCC[C@@H]1NC(=O)[C@@H](Cc2c[nH]c3ccccc23)NC(=O)[C@H](Cc2ccc(O)cc2)NC(=O)[C@@H]2C[C@@H](OC(=O)NCCN)CN2C(=O)[C@H](Cc2ccccc2)NC(=O)[C@H](Cc2ccc(OCc3ccccc3)cc2)NC1=O` gave Ki of 1.58 nM

###

# ASSAY TARGET: Somatostatin receptor type 4 (Homo sapiens)
# Sequence (P31391 whole entry): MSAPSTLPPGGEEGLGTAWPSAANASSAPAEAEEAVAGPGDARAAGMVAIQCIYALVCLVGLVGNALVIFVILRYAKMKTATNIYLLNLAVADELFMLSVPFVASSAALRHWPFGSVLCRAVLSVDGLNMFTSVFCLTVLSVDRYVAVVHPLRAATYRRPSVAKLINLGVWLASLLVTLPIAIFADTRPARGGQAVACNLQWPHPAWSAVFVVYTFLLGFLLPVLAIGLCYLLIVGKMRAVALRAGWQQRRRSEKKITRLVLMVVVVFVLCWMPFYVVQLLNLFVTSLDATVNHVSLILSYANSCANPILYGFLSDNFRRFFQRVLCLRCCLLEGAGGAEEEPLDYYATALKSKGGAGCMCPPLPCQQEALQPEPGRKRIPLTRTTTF
# PROTOCOL SUMMARY: Binding affinity towards human Somatostatin receptor type 4 (sst4) using Tyr11-[125I]-SRIF as radioligand was determined in CHO cells
pKi: −log10 of the molar value. Positions of bridges follow the written chain, without caps; N, C: chain ends. Non-standard residues stand in square brackets, D forms with d. Residues, ends and D or L forms follow the SMILES beside them. *: point of attachment. Hyp = O=C(O)[C@@H]1C[C@@H](O)CN1; Bn = c1ccc(C*)cc1
PROPERTY MEASURED: pKi

A selection of reference data follows.
NCCCC[C@@H]1NC(=O)[C@@H](Cc2c[nH]c3ccccc23)NC(=O)[C@H](Cc2ccccc2)NC(=O)[C@@H]2C[C@@H](O)CN2C(=O)[C@H](Cc2ccccc2)NC(=O)[C@H](Cc2ccc(OCc3ccccc3)cc2)NC1=O (cyclo(F[Hyp]F[dW]KY(Bn))) = 6.50
C[C@H](N)C(=O)NCC(=O)N[C@H]1CSSC[C@@H](C(N)=O)NC(=O)[C@H](CO)NC(=O)[C@H]([C@@H](C)O)NC(=O)[C@H](Cc2ccccc2)NC(=O)[C@H]([C@@H](C)O)NC(=O)[C@H](CCCCN)NC(=O)[C@H](C)NC(=O)[C@H](Cc2ccccc2)NC(=O)[C@H](Cc2ccccc2)NC(=O)[C@H](CC(N)=O)NC(=O)[C@H](CCCCN)NC1=O (H-AGCKNFFAKTFTSC-NH2; disulfide 3-14) = < 6.00

Turning now to a further molecule:
Observed pKi on Somatostatin receptor type 4 (Homo sapiens), entry C[C@@H](O)[C@@H]1NC(=O)[C@H](CCCCN)NC(=O)[C@@H](Cc2c[nH]c3ccccc23)NC(=O)[C@H](Cc2ccccc2)NC(=O)[C@@H]2C[C@@H](O)CN2C(=O)[C@H](Cc2ccccc2)NC1=O (cyclo(F[Hyp]F[dW]KT)) , equals < 6.00
